Give self-cleavage kobs at 2500 uM GlcN6P for every item shown.
B1: glmS ribozyme (parent)
chain: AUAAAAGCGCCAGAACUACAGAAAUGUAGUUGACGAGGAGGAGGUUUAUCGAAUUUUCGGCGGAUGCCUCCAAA

variants of: B1; test: self-cleavage kobs at 2500 uM GlcN6P; higher = faster cleavage; RNA array; conditions: with glucosamine-6-phosphate
Variants at the floor of the assay were thinned out.

stdin: Could you share which self-cleavage kobs at 2500 uM GlcN6P value was measured for C11G A14C U31G A33U ?
stdout: < 1e-05 s⁻¹

stdin: Could you share which self-cleavage kobs at 2500 uM GlcN6P value was measured for A33C G37C U55C ?
stdout: < 1e-05 s⁻¹

stdin: Could you share which self-cleavage kobs at 2500 uM GlcN6P value was measured for G29U C34U A42C ?
stdout: < 1e-05 s⁻¹

stdin: Could you share which self-cleavage kobs at 2500 uM GlcN6P value was measured for G32U G43U G44U G60A ?
stdout: < 1e-05 s⁻¹

stdin: Could you share which self-cleavage kobs at 2500 uM GlcN6P value was measured for C34A U45C ?
stdout: < 1e-05 s⁻¹

stdin: Could you share which self-cleavage kobs at 2500 uM GlcN6P value was measured for A39C U57A C67G ?
stdout: < 1e-05 s⁻¹

stdin: Could you share which self-cleavage kobs at 2500 uM GlcN6P value was measured for G13U G35A U57A U65G ?
stdout: < 1e-05 s⁻¹

stdin: Could you share which self-cleavage kobs at 2500 uM GlcN6P value was measured for A14C C16U G43C ?
stdout: < 1e-05 s⁻¹

stdin: Could you share which self-cleavage kobs at 2500 uM GlcN6P value was measured for A53G C67G C68U ?
stdout: 7.23e-05 s⁻¹

stdin: Could you share which self-cleavage kobs at 2500 uM GlcN6P value was measured for C50A G59C ?
stdout: < 1e-05 s⁻¹

stdin: Could you share which self-cleavage kobs at 2500 uM GlcN6P value was measured for C58U A64G ?
stdout: 5.74e-05 s⁻¹

stdin: Could you share which self-cleavage kobs at 2500 uM GlcN6P value was measured for A48C A53U ?
stdout: 0.000131 s⁻¹

stdin: Could you share which self-cleavage kobs at 2500 uM GlcN6P value was measured for C8G A14G G32U A64U ?
stdout: < 1e-05 s⁻¹

stdin: Could you share which self-cleavage kobs at 2500 uM GlcN6P value was measured for C16A G51U A64C ?
stdout: < 1e-05 s⁻¹

stdin: Could you share which self-cleavage kobs at 2500 uM GlcN6P value was measured for G32U G59A A64U C67U ?
stdout: < 1e-05 s⁻¹

stdin: Could you share which self-cleavage kobs at 2500 uM GlcN6P value was measured for C70A C71G ?
stdout: 5.08e-05 s⁻¹

stdin: Could you share which self-cleavage kobs at 2500 uM GlcN6P value was measured for C10A C50U C68U ?
stdout: 6.13e-05 s⁻¹

stdin: Could you share which self-cleavage kobs at 2500 uM GlcN6P value was measured for C11A G35U C58G ?
stdout: < 1e-05 s⁻¹

stdin: Could you share which self-cleavage kobs at 2500 uM GlcN6P value was measured for A14C C16A U31C G35C U55G ?
stdout: < 1e-05 s⁻¹

stdin: Could you share which self-cleavage kobs at 2500 uM GlcN6P value was measured for A6G U30G ?
stdout: 5.13e-05 s⁻¹

stdin: Could you share which self-cleavage kobs at 2500 uM GlcN6P value was measured for G40U U47C A53C U54A ?
stdout: 0.000202 s⁻¹

stdin: Could you share which self-cleavage kobs at 2500 uM GlcN6P value was measured for C34A U46C A53G G60C C61A ?
stdout: < 1e-05 s⁻¹

stdin: Could you share which self-cleavage kobs at 2500 uM GlcN6P value was measured for G43C C50A ?
stdout: < 1e-05 s⁻¹

stdin: Could you share which self-cleavage kobs at 2500 uM GlcN6P value was measured for G29C A33U G35C A52U ?
stdout: < 1e-05 s⁻¹

stdin: Could you share which self-cleavage kobs at 2500 uM GlcN6P value was measured for U49C G62U ?
stdout: < 1e-05 s⁻¹

stdin: Could you share which self-cleavage kobs at 2500 uM GlcN6P value was measured for C11G U30A A33C ?
stdout: < 1e-05 s⁻¹

stdin: Could you share which self-cleavage kobs at 2500 uM GlcN6P value was measured for C58U U69G ?
stdout: 7.55e-05 s⁻¹

stdin: Could you share which self-cleavage kobs at 2500 uM GlcN6P value was measured for A42G G60A U65G ?
stdout: < 1e-05 s⁻¹

stdin: Could you share which self-cleavage kobs at 2500 uM GlcN6P value was measured for G29C C70U ?
stdout: 0.00103 s⁻¹

stdin: Could you share which self-cleavage kobs at 2500 uM GlcN6P value was measured for A36C G41A U56G G60A C68U ?
stdout: < 1e-05 s⁻¹

stdin: Could you share which self-cleavage kobs at 2500 uM GlcN6P value was measured for C8A A33C A42G U65G ?
stdout: < 1e-05 s⁻¹

stdin: Could you share which self-cleavage kobs at 2500 uM GlcN6P value was measured for U56G U57A ?
stdout: 0.000102 s⁻¹

stdin: Could you share which self-cleavage kobs at 2500 uM GlcN6P value was measured for A14C U54G C58G C68U ?
stdout: 4.09e-05 s⁻¹

stdin: Could you share which self-cleavage kobs at 2500 uM GlcN6P value was measured for G44U C61A C67U C70G ?
stdout: < 1e-05 s⁻¹

stdin: Could you share which self-cleavage kobs at 2500 uM GlcN6P value was measured for A33C C68A ?
stdout: < 1e-05 s⁻¹

stdin: Could you share which self-cleavage kobs at 2500 uM GlcN6P value was measured for A6U A36G A64U ?
stdout: < 1e-05 s⁻¹

stdin: Could you share which self-cleavage kobs at 2500 uM GlcN6P value was measured for A6G G37A G41A ?
stdout: < 1e-05 s⁻¹

stdin: Could you share which self-cleavage kobs at 2500 uM GlcN6P value was measured for C50U U55G ?
stdout: 4.31e-05 s⁻¹

stdin: Could you share which self-cleavage kobs at 2500 uM GlcN6P value was measured for A53G C71G ?
stdout: 0.00062 s⁻¹

stdin: Could you share which self-cleavage kobs at 2500 uM GlcN6P value was measured for G9C A12C ?
stdout: < 1e-05 s⁻¹

stdin: Could you share which self-cleavage kobs at 2500 uM GlcN6P value was measured for C16U U49G ?
stdout: 0.000685 s⁻¹

stdin: Could you share which self-cleavage kobs at 2500 uM GlcN6P value was measured for G9A C10U U31C G44A ?
stdout: < 1e-05 s⁻¹

stdin: Could you share which self-cleavage kobs at 2500 uM GlcN6P value was measured for G37A U49C ?
stdout: < 1e-05 s⁻¹

stdin: Could you share which self-cleavage kobs at 2500 uM GlcN6P value was measured for G44U C67U ?
stdout: 0.00417 s⁻¹

stdin: Could you share which self-cleavage kobs at 2500 uM GlcN6P value was measured for G7C G13C A48G C70A ?
stdout: < 1e-05 s⁻¹

stdin: Could you share which self-cleavage kobs at 2500 uM GlcN6P value was measured for A33G A52G G63A ?
stdout: < 1e-05 s⁻¹

stdin: Could you share which self-cleavage kobs at 2500 uM GlcN6P value was measured for A39G U45A ?
stdout: 0.061 s⁻¹

stdin: Could you share which self-cleavage kobs at 2500 uM GlcN6P value was measured for G13U A15C U54C ?
stdout: 0.00013 s⁻¹

stdin: Could you share which self-cleavage kobs at 2500 uM GlcN6P value was measured for U31G G41A U46G ?
stdout: 0.00021 s⁻¹

stdin: Could you share which self-cleavage kobs at 2500 uM GlcN6P value was measured for "C50U" ?
stdout: 5.29e-05 s⁻¹

stdin: Could you share which self-cleavage kobs at 2500 uM GlcN6P value was measured for A6G U55G G66C C70A ?
stdout: 0.000623 s⁻¹

stdin: Could you share which self-cleavage kobs at 2500 uM GlcN6P value was measured for A42C C61G ?
stdout: < 1e-05 s⁻¹

stdin: Could you share which self-cleavage kobs at 2500 uM GlcN6P value was measured for A6U C34A ?
stdout: < 1e-05 s⁻¹

stdin: Could you share which self-cleavage kobs at 2500 uM GlcN6P value was measured for G9A G40U G63A A64U ?
stdout: < 1e-05 s⁻¹

stdin: Could you share which self-cleavage kobs at 2500 uM GlcN6P value was measured for U47G C70U ?
stdout: 0.000583 s⁻¹

stdin: Could you share which self-cleavage kobs at 2500 uM GlcN6P value was measured for G7U G41C C50U ?
stdout: < 1e-05 s⁻¹

stdin: Could you share which self-cleavage kobs at 2500 uM GlcN6P value was measured for C50G C70A ?
stdout: 0.000238 s⁻¹

stdin: Could you share which self-cleavage kobs at 2500 uM GlcN6P value was measured for G40A U45C ?
stdout: 0.000553 s⁻¹

stdin: Could you share which self-cleavage kobs at 2500 uM GlcN6P value was measured for G41C U47G ?
stdout: 3.37e-05 s⁻¹

stdin: Could you share which self-cleavage kobs at 2500 uM GlcN6P value was measured for A42C U69C ?
stdout: 0.000165 s⁻¹

stdin: Could you share which self-cleavage kobs at 2500 uM GlcN6P value was measured for C8G G35A G43C U69G ?
stdout: < 1e-05 s⁻¹

stdin: Could you share which self-cleavage kobs at 2500 uM GlcN6P value was measured for A36U C50G U69G ?
stdout: 0.000275 s⁻¹

stdin: Could you share which self-cleavage kobs at 2500 uM GlcN6P value was measured for U30A C58A ?
stdout: 9.07e-05 s⁻¹

stdin: Could you share which self-cleavage kobs at 2500 uM GlcN6P value was measured for A33G A53C G59A ?
stdout: < 1e-05 s⁻¹

stdin: Could you share which self-cleavage kobs at 2500 uM GlcN6P value was measured for C50G U57G G66U C70G ?
stdout: 0.000139 s⁻¹

stdin: Could you share which self-cleavage kobs at 2500 uM GlcN6P value was measured for A15U U31G C71U ?
stdout: 0.000267 s⁻¹

stdin: Could you share which self-cleavage kobs at 2500 uM GlcN6P value was measured for A39U U47C ?
stdout: 0.00471 s⁻¹

stdin: Could you share which self-cleavage kobs at 2500 uM GlcN6P value was measured for C16U A36U A39U A52U ?
stdout: < 1e-05 s⁻¹

stdin: Could you share which self-cleavage kobs at 2500 uM GlcN6P value was measured for G7C A36U C67G ?
stdout: < 1e-05 s⁻¹

stdin: Could you share which self-cleavage kobs at 2500 uM GlcN6P value was measured for C11U G38C ?
stdout: < 1e-05 s⁻¹

stdin: Could you share which self-cleavage kobs at 2500 uM GlcN6P value was measured for C11A A14G U65G ?
stdout: 9.32e-05 s⁻¹

stdin: Could you share which self-cleavage kobs at 2500 uM GlcN6P value was measured for "C58A" ?
stdout: 0.000305 s⁻¹

stdin: Could you share which self-cleavage kobs at 2500 uM GlcN6P value was measured for C8G U47G U54A G63U ?
stdout: < 1e-05 s⁻¹

stdin: Could you share which self-cleavage kobs at 2500 uM GlcN6P value was measured for C16U A33U ?
stdout: 5.09e-05 s⁻¹

stdin: Could you share which self-cleavage kobs at 2500 uM GlcN6P value was measured for C58A C68A ?
stdout: 3.75e-05 s⁻¹

stdin: Could you share which self-cleavage kobs at 2500 uM GlcN6P value was measured for G29U C58U C68U ?
stdout: 5.55e-05 s⁻¹

stdin: Could you share which self-cleavage kobs at 2500 uM GlcN6P value was measured for C10U G62U ?
stdout: < 1e-05 s⁻¹

stdin: Could you share which self-cleavage kobs at 2500 uM GlcN6P value was measured for A6C G44U ?
stdout: < 1e-05 s⁻¹

stdin: Could you share which self-cleavage kobs at 2500 uM GlcN6P value was measured for C34U C58U U65A ?
stdout: < 1e-05 s⁻¹

stdin: Could you share which self-cleavage kobs at 2500 uM GlcN6P value was measured for A14G G41A G60U ?
stdout: < 1e-05 s⁻¹

stdin: Could you share which self-cleavage kobs at 2500 uM GlcN6P value was measured for A33U G35U A42U G44U ?
stdout: < 1e-05 s⁻¹

stdin: Could you share which self-cleavage kobs at 2500 uM GlcN6P value was measured for C11U G41C U45A C71G ?
stdout: < 1e-05 s⁻¹

stdin: Could you share which self-cleavage kobs at 2500 uM GlcN6P value was measured for U56G C70A ?
stdout: 6.95e-05 s⁻¹

stdin: Could you share which self-cleavage kobs at 2500 uM GlcN6P value was measured for U49G U65G ?
stdout: 6.08e-05 s⁻¹
